- system name: human GLP1R (Homo sapiens, UniProt P43220)
- Construct: expressed in transfected cells; host or cells: CHO cells (ATCC), transient transfection with pCMV-human GLP1R
- Sequence (P43220 24-463): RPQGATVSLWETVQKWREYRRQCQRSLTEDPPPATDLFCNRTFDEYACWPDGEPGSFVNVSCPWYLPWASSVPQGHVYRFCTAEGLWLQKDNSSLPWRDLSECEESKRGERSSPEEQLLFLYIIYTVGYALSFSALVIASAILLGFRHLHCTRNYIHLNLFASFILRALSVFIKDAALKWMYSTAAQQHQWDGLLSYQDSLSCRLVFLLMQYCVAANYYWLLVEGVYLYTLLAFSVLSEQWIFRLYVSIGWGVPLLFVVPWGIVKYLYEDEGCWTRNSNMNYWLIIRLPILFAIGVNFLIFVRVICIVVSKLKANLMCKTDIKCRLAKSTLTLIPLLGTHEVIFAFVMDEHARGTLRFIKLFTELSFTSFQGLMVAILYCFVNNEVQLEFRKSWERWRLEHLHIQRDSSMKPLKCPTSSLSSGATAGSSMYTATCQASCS
- measurement description: Human GLP-1 receptor transfected cell assay (MRE/CRE-luciferase reporter gene, agonist activity)
- Format: cell-based
- reported conditions: 6 h; concentration 1 μM; read-out: Activity (agonist), percentage of the activity of the control
# key: entry, value: activation at 1 µM

These recorded examples may help you get a feel for the data.
CC(C)(C)OC(=O)Nc1ccc(-c2nc(-c3ccc(CC(NS(=O)(=O)c4ccc(Br)c(F)c4)C(=O)O)cc3F)no2)cc1 (stereo not drawn) [Compound 3O] : 20 to 40%
Cc1ccc(-c2nc(C(=O)NC(Cc3ccc(C#Cc4ccc(NC(=O)OC(C)(C)C)cc4)c(F)c3)C(=O)O)cs2)cc1 (stereo not drawn) [Compound 3E] : 40 to 60%
CC(C)(C)OC(=O)Nc1ccc(-c2nc(-c3ccc(CC(NC(=O)c4cccc(-c5ccc(C6CC6)cc5)c4)C(=O)O)cc3F)no2)cc1 (stereo not drawn) [Compound 2L] : > 60%
Cc1cc(C[C@@H](NC(=O)c2ccc(-c3ccc(Cl)cc3F)o2)C(=O)O)ccc1-c1noc(-c2ccc(NC(=O)OC(C)(C)C)cc2)n1 [Compound 6S] : 20 to 40%
CC(C)(C)OC(=O)Nc1ccc(-c2nc(-c3ccc(CC(NC(=O)Nc4cc(-c5ccc(F)cc5)on4)C(=O)O)cc3F)no2)cc1 (stereo not drawn) [Compound 4S] : 40 to 60%

Switching to the query record.
Given item Cc1ccc(-c2cccc(C(=O)NC(Cc3ccc(-c4noc(-c5ccc(NC(=O)OC(C)(C)C)cc5)n4)nc3)C(=O)O)c2)cc1 (stereo not drawn) [Compound 5K] , the value recorded as its activation at 1 µM is > 60%

----------
- system name: human GLP1R (Homo sapiens, UniProt P43220)
- Construct: expressed in transfected cells; host or cells: CHO cells (ATCC), transient transfection with pCMV-human GLP1R
- measurement description: Human GLP-1 receptor transfected cell assay (MRE/CRE-luciferase reporter gene, agonist activity)
- Type: cell-based
- reported conditions: 6 h; concentration 3.16 μM; read-out: Activity (agonist), percentage of the activity of the control
parameter measured: activation at 3.16 µM

// known answers, use as guide
CC(C)c1ccc(-c2ccc(C(=O)NC(Cc3ccc(-c4noc(-c5ccc(NC(=O)OC(C)(C)C)cc5)n4)c(F)c3)C(=O)O)o2)cc1 (stereo not drawn) : 20 to 40%
CC(C)(C)OC(=O)Nc1ccc(-c2nc(-c3ccc(CC(NC(=O)c4cccc(-c5ccc(Cl)cc5F)n4)C(=O)O)cc3F)no2)cc1 (stereo not drawn) : > 60%

Short answer on human GLP1R (Homo sapiens, UniProt P43220) for CC(C)(C)OC(=O)Nc1ccc(-c2nc(-c3ccc(CC(NC(=O)c4c[nH]c(-c5ccc(Br)cn5)n4)C(=O)O)cc3F)no2)cc1 (stereo not drawn) , activation at 3.16 µM: 40 to 60%

----------
- system name: human GLP1R (Homo sapiens, UniProt P43220)
- Construct: expressed in transfected cells; host or cells: CHO cells (ATCC), transient transfection with pCMV-human GLP1R
- measurement description: Human GLP-1 receptor transfected cell assay (MRE/CRE-luciferase reporter gene, agonist activity)
- Assay type: cell-based
- reported conditions: 6 h; concentration 10 μM; read-out: Activity (agonist), percentage of the activity of the control
A collection of compounds and their measured activation at 10 µM

Example results:
CC(C)(C)OC(=O)Nc1ccc(-c2nc(-c3ccc(C[C@@H](NC(=O)c4cccc(-c5ccc(Cl)cc5F)c4)C(=O)O)cc3F)no2)cc1 [Compound 6C] : > 60%
CCc1ccc(-c2cccc(C(=O)NC(Cc3ccc(-c4noc(-c5ccc(NC(=O)OC(C)(C)C)cc5)n4)c(F)c3)C(=O)O)c2)cc1 (stereo not drawn) [Compound 2I] : 40 to 60%

Consider the additional compound presented here.
Lookup result for CC(C)(C)OC(=O)Nc1ccc(-c2nc(-c3ccc(CC(NS(=O)(=O)N4CCN(c5ccc(Cl)cc5)CC4)C(=O)O)cc3F)no2)cc1 (stereo not drawn) [Compound 4A] ; measured activation at 10 µM: 40 to 60%

----------
- system name: human GLP1R (Homo sapiens)
- Construct: expressed in transfected cells; host or cells: CHO cells (ATCC), transient transfection with pCMV-human GLP1R
- measurement description: Human GLP-1 receptor transfected cell assay (MRE/CRE-luciferase reporter gene, agonist activity)
- Assay type: cell-based
- reported conditions: 6 h; concentration 1 μM; read-out: Activity (agonist), percentage of the activity of the control
- Protocol: The glucagon-like peptide I receptor (GLP1R) is a class B Gs-coupled membrane receptor, an agonist of which activates adenylate cyclase (AC) and elevates intracellular cAMP level. […] Before transfection, CHO cells were plated into a 6-well culture plate at 800,000/2 mL/well, and cultured at 37° C. in 5% CO2 overnight. […] The activity of luciferase was detected using BRIGHT-GLO™ Luciferase Analytic System, and the reading was performed with a Flexstation3 plate reader machine.
parameter measured: activation at 1 µM

Cc1ccc(-c2ccc(C(=O)N[C@H](Cc3cc(Br)cc(-c4noc(-c5ccc(NC(=O)OC(C)(C)C)cc5)n4)c3)C(=O)O)o2)cc1 : > 60%
Cc1ccc(-c2cccc(C(=O)NC(Cc3ccc(-c4noc(-c5ccc(NC(=O)OC(C)(C)C)cc5)n4)c(F)c3)C(=O)O)c2)cc1 (stereo not drawn) : > 60%

From here, focus on the item given below.
Recorded activation at 1 µM (molecule Cc1ccc(-c2ccc(C(=O)N[C@H](Cc3ccc(C)c(-c4noc(-c5ccc(NC(=O)OC(C)(C)C)cc5)n4)c3)C(=O)O)o2)cc1 ): 40 to 60%

----------
- system name: human GLP1R (Homo sapiens, UniProt P43220)
- Construct: expressed in transfected cells; host or cells: CHO cells (ATCC), transient transfection with pCMV-human GLP1R
- measurement description: Human GLP-1 receptor transfected cell assay (MRE/CRE-luciferase reporter gene, agonist activity)
- Format: cell-based
- reported conditions: 6 h; concentration 10 μM; read-out: Activity (agonist), percentage of the activity of the control
parameter measured: activation at 10 µM

Cc1ccc(-c2cccc(C(=O)NC(Cc3ccc(-c4noc(C(=O)N5CCC(C)CC5)n4)c(F)c3)C(=O)O)c2)cc1 (stereo not drawn) : > 60%
Cc1ccc(-c2nc(C(=O)NC(Cc3ccc(-c4noc(-c5ccc(NC(=O)OC(C)(C)C)cc5)n4)c(F)c3)C(=O)O)co2)cc1 (stereo not drawn) : > 60%
COc1ccc(C#CC(=O)N[C@H](Cc2ccc(-c3noc(-c4ccc(NC(=O)OC(C)(C)C)cc4)n3)c(F)c2)C(=O)O)cc1 : 20 to 40%
CC(C)(C)OC(=O)Nc1ccc(-c2nc(-c3ccc(CC(NC(=O)c4cccc(-c5ccc(F)cc5)n4)C(=O)O)cc3F)no2)cc1 (stereo not drawn) : 40 to 60%
CC(C)(C)OC(=O)Nc1ccc(-c2nc(-c3ccc(CC(NC(=O)c4cccc(Nc5ccccc5)c4)C(=O)O)cc3F)no2)cc1 (stereo not drawn) : 40 to 60%

Short answer for COc1cc2c(cc1OC(=O)c1ccc(NC(=O)OC(C)(C)C)cc1)CN(C(=O)c1ccc(-c3ccc(C)cc3)o1)C(C(=O)O)C2 (stereo not drawn) : activation at 10 µM was > 60%

----------
- system name: human GLP1R (Homo sapiens, UniProt P43220)
- Construct: expressed in transfected cells; host or cells: CHO cells (ATCC), transient transfection with pCMV-human GLP1R
- measurement description: Human GLP-1 receptor transfected cell assay (MRE/CRE-luciferase reporter gene, agonist activity)
- Type: cell-based
- reported conditions: 6 h; concentration 1 μM; read-out: Activity (agonist), percentage of the activity of the control
- Procedure: The glucagon-like peptide I receptor (GLP1R) is a class B Gs-coupled membrane receptor, an agonist of which activates adenylate cyclase (AC) and elevates intracellular cAMP level. […] Before transfection, CHO cells were plated into a 6-well culture plate at 800,000/2 mL/well, and cultured at 37° C. in 5% CO2 overnight. […] The activity of luciferase was detected using BRIGHT-GLO™ Luciferase Analytic System, and the reading was performed with a Flexstation3 plate reader machine.
Reported activation at 1 µM by item:

Guide cases for activation at 1 µM, answers given:
CC(C)(C)OC(=O)Nc1ccc(-c2nc(-c3ccc(CC(NC(=O)c4cccc(NCc5ccccc5)c4)C(=O)O)cc3F)no2)cc1 (stereo not drawn) : 20 to 40%
Cc1ccc(-c2ccc(C(=O)NC(Cc3ccc(-c4ccc(-c5ccc(NC(=O)OC(C)(C)C)cc5)s4)c(F)c3)C(=O)O)o2)cc1 (stereo not drawn) : > 60%

Recorded result, Cc1ccc(N2CCN(C(=O)NC(Cc3ccc(-c4noc(-c5ccc(NC(=O)OC(C)(C)C)cc5)n4)c(F)c3)C(=O)O)CC2)cc1 (stereo not drawn) , activation at 1 µM: > 60%

Looking up Cc1cc(-c2ccc(C(=O)N[C@H](Cc3ccc(-c4noc(-c5ccc(NC(=O)OC(C)(C)C)cc5)n4)c(F)c3)C(=O)O)o2)ccc1F , I found its activation at 1 µM recorded as > 60%
